Ref: patent US20100298225A1

Biological target: Recombinant Cx43CT (carboxyl terminal domain of connexin43, sequence 255-382 of rCx43 preceded by GPLG) (rat, UniProt P08050)
Sequence (P08050 other isoform, or with tags, fused parts or gaps limits assumed): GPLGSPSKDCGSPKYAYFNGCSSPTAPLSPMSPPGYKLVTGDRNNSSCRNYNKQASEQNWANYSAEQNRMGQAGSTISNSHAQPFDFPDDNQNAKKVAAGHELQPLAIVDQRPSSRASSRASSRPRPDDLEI
Test: SPR, Cx43CT immobilised, peptide at 1 mM
Everything with SPR respons at 1 mM lower than 700 arbitrary units is condition not met; everything else, including exactly 700 arbitrary units, is condition met.

Please tell me: is the binder Ac-RRNYVPRRNY-NH2 [Compound 2512] at or over 700 arbitrary units in terms of SPR respons at 1 mM?
condition not met

Also need Ac-RRNY-NH2 [Compound 2498] , thanks.
condition not met

Now the same for Ac-YNRRGGGSAVPFYSHSYNRR-NH2 [Compound 2496]
condition met

Please do the same for Ac-RRNYGGSAVPFYSHRRNY-NH2 [Compound 2510] as well.
condition met

What do you have for Ac-RRNYGGGSAVPFYRRNY-NH2 [Compound 2508] ?
condition met

Try this binder too: Ac-YNRR-NH2 [Compound 2499]
condition not met
